target: CDK1/CyclinB (Homo sapiens, UniProt P06493); experiment: CDK1/CyclinB kinase inhibitory activity (Caliper mobility shift); conditions: enzyme 3 nM, ATP 20 μM, 28° C. 30 min; read-out: CDK1/Cyclin B1 IC50
Sequence (P06493 whole entry): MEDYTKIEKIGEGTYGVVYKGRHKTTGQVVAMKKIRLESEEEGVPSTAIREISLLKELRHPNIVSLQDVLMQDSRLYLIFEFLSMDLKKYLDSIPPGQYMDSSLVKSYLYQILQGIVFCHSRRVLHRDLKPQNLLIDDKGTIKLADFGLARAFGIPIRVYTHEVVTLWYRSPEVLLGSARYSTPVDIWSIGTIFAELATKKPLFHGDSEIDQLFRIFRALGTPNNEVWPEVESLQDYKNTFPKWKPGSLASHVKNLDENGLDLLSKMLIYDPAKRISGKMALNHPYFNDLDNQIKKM
Sequence (P14635 whole entry partner): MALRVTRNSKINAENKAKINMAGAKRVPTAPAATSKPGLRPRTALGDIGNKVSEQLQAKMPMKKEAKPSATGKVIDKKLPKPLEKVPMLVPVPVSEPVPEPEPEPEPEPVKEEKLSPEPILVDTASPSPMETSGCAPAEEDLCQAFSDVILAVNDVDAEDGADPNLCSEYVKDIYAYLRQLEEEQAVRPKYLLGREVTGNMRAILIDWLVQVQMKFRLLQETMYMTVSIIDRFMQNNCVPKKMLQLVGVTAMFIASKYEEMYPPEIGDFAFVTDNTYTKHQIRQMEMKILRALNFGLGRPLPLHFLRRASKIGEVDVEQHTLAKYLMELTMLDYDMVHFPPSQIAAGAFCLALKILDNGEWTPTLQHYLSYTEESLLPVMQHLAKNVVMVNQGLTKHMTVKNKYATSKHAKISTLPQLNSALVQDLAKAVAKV

>  <MOLECULE>
O[C@@H]1COCC[C@H]1Nc1ncc(Cl)c(-c2cc(F)c3ncc4c(c3c2)C2CCC(C4)N2)n1 (single isomer, unassigned) [Example 20b]

>  <SYSTEM_TESTED>
CDK1/CyclinB (Homo sapiens, UniProt P06493)

>  <IC50>
0.1 to 1 µM

$$$$
>  <MOLECULE>
CNC(C)(C)c1cnc2c(F)cc(-c3nc(N[C@@H]4CCOC[C@H]4O)ncc3Cl)cc2c1

>  <SYSTEM_TESTED>
CDK1/CyclinB (Homo sapiens, UniProt P06493)

>  <IC50>
≥ 1 µM

$$$$
>  <MOLECULE>
CC1(C)Cc2cnc3c(F)cc(-c4nc(N[C@@H]5CCOC[C@H]5O)ncc4C#N)cc3c2CN1

>  <SYSTEM_TESTED>
CDK1/CyclinB (Homo sapiens, UniProt P06493)

>  <IC50>
≥ 1 µM

$$$$
>  <MOLECULE>
O[C@@H]1COCC[C@H]1Nc1ncc(Cl)c(-c2cc(F)c3ncc4c(c3c2)CCNC4)n1

>  <SYSTEM_TESTED>
CDK1/CyclinB (Homo sapiens, UniProt P06493)

>  <IC50>
0.01 to 0.1 µM

$$$$
>  <MOLECULE>
Cc1[nH]cnc1-c1cnc2c(F)cc(-c3nc(N[C@@H]4CCOC[C@H]4O)ncc3Cl)cc2c1

>  <SYSTEM_TESTED>
CDK1/CyclinB (Homo sapiens, UniProt P06493)

>  <IC50>
0.1 to 1 µM

$$$$
>  <MOLECULE>
Cc1c(C(C)(C)O)cnc2c(C)cc(-c3nc(N[C@@H]4CCOC[C@H]4O)ncc3Cl)cc12

>  <SYSTEM_TESTED>
CDK1/CyclinB (Homo sapiens, UniProt P06493)

>  <IC50>
≥ 1 µM

$$$$
>  <MOLECULE>
CNC(C)c1cc2cc(-c3nc(N[C@@H]4CCOC[C@H]4O)ncc3Cl)cc(F)c2nc1C (single isomer, unassigned) [Example 45a]

>  <SYSTEM_TESTED>
CDK1/CyclinB (Homo sapiens, UniProt P06493)

>  <IC50>
0.1 to 1 µM

$$$$
>  <MOLECULE>
[2H]c1nc2c(F)cc(-c3nc(N[C@@H]4CCOC[C@H]4O)ncc3C)cc2c2c1CC(C)(C)NC2

>  <SYSTEM_TESTED>
CDK1/CyclinB (Homo sapiens, UniProt P06493)

>  <IC50>
≥ 1 µM

$$$$
>  <MOLECULE>
CC1Cc2cnc3c(F)cc(-c4nc(N[C@@H]5CCOC[C@H]5O)ncc4Cl)cc3c2CN1 (single isomer, unassigned) [Example 34a]

>  <SYSTEM_TESTED>
CDK1/CyclinB (Homo sapiens, UniProt P06493)

>  <IC50>
0.1 to 1 µM

$$$$
>  <MOLECULE>
Cc1nc2c(F)cc(-c3nc(N[C@@H]4CCOC[C@H]4O)ncc3Cl)cc2c2c1CCN(C)C2

>  <SYSTEM_TESTED>
CDK1/CyclinB (Homo sapiens, UniProt P06493)

>  <IC50>
≥ 1 µM

$$$$
>  <MOLECULE>
CC(C)n1c(C(C)(C)O)nc2c(F)cc(-c3cc(N[C@@H]4CCOC[C@H]4O)ncc3Cl)cc21

>  <SYSTEM_TESTED>
CDK1/CyclinB (Homo sapiens, UniProt P06493)

>  <IC50>
≥ 1 µM

$$$$

Cited source: patent US20260242395A1
